Just for reference, paper PMC5309722 is where these values come from.

substrate: C=CC1=C(C)/C(=C/c2[nH]c(/C=C3N=C(/C=C4\NC(=O)C(C)=C4C=C)C(C)=C\3CCC(=O)O)c(CCC(=O)O)c2C)NC1=O; assay: steady-state kinetics, A450 bilirubin formation; format: biochemical, Rattus norvegicus; details: 100 μM NADPH, 100 mM Tris-HCl pH 8.75
quantityName: kcat/Km (M⁻¹ s⁻¹)
Answer in M⁻¹ s⁻¹, number only, no unit symbol.

Known results for proteins:
{"protein": "rat BVR (Rattus norvegicus; R171E) (protein, C-terminal His tag (pET21a-rat bvr), E. coli BL21(DE3)) MDAEPKRKFGVVVVGVGRAGSVRLRDLKDPRSAAFLNLIGFVSRRELGSLDEVRQISLEDALRSQEIDVAYICSESSSHEDYIRQFLQAGKHVLVEYPMTLSFAAAQELWELAAQKGRVLHEEHVELLMEEFEFLRREVLGKELLKGSLRFTASPLEEERFGFPAFSGISELTWLVSLFGELSLISATLEERKEDQYMKMTVQLETQNKGLLSWIEEKGPGLKRNRYVNFQFTSGSLEEVPSVGVNKNIFLKDQDIFVQKLLDQVSAEDLAAEKKRIMHCLGLASDIQKLCHQKK", "endpointResult": 20000}
{"protein": "rat BVR (Rattus norvegicus) (protein, C-terminal His tag (pET21a-rat bvr), E. coli BL21(DE3)) MDAEPKRKFGVVVVGVGRAGSVRLRDLKDPRSAAFLNLIGFVSRRELGSLDEVRQISLEDALRSQEIDVAYICSESSSHEDYIRQFLQAGKHVLVEYPMTLSFAAAQELWELAAQKGRVLHEEHVELLMEEFEFLRREVLGKELLKGSLRFTASPLEEERFGFPAFSGISRLTWLVSLFGELSLISATLEERKEDQYMKMTVQLETQNKGLLSWIEEKGPGLKRNRYVNFQFTSGSLEEVPSVGVNKNIFLKDQDIFVQKLLDQVSAEDLAAEKKRIMHCLGLASDIQKLCHQKK", "endpointResult": "1.51e+07"}

### Prompt Returns the measured kcat/Km for the input protein. Input: rat BVR (Rattus norvegicus; Y97F) (protein, C-terminal His tag (pET21a-rat bvr), E. coli BL21(DE3)) MDAEPKRKFGVVVVGVGRAGSVRLRDLKDPRSAAFLNLIGFVSRRELGSLDEVRQISLEDALRSQEIDVAYICSESSSHEDYIRQFLQAGKHVLVEFPMTLSFAAAQELWELAAQKGRVLHEEHVELLMEEFEFLRREVLGKELLKGSLRFTASPLEEERFGFPAFSGISRLTWLVSLFGELSLISATLEERKEDQYMKMTVQLETQNKGLLSWIEEKGPGLKRNRYVNFQFTSGSLEEVPSVGVNKNIFLKDQDIFVQKLLDQVSAEDLAAEKKRIMHCLGLASDIQKLCHQKK
### Response 1.2e+06

### Prompt Likewise for rat BVR (Rattus norvegicus; R171A) (protein, C-terminal His tag (pET21a-rat bvr), E. coli BL21(DE3)) MDAEPKRKFGVVVVGVGRAGSVRLRDLKDPRSAAFLNLIGFVSRRELGSLDEVRQISLEDALRSQEIDVAYICSESSSHEDYIRQFLQAGKHVLVEYPMTLSFAAAQELWELAAQKGRVLHEEHVELLMEEFEFLRREVLGKELLKGSLRFTASPLEEERFGFPAFSGISALTWLVSLFGELSLISATLEERKEDQYMKMTVQLETQNKGLLSWIEEKGPGLKRNRYVNFQFTSGSLEEVPSVGVNKNIFLKDQDIFVQKLLDQVSAEDLAAEKKRIMHCLGLASDIQKLCHQKK ?
### Response 200000
